System: HeLa
assay-text: Hoechst 33342 nuclear staining, HeLa
Format: cell-based, human
conditions-used: 48 h, conc. 1 (μM)
measured-parameter: Hoechst 33342 nuclear staining score

COc1cccc(/C=C/C(=O)Cn2c(-n3ncnc3N)nc3ccccc32)c1 [Example 9] : 0

Below: the item to evaluate.
Qu. What does the data say about its Hoechst 33342 nuclear staining score? Entry: COc1ccc(C(=O)Cn2c(-n3ccc(N)n3)nc3ccccc32)cc1 [Example 2]
Ans. 0

###

# Hoechst 33342 nuclear staining score annotations
System: MRC5
assay-text: Hoechst 33342 nuclear staining, MRC5
Type: cell-based
Set-up: key: 0 = no activity, 1 = weak (<50% of cells), 2 = strong (>50% of cells)
conditions-used: MRC5, 48 h, conc. 1 (μM)

COc1ccc(C(=O)Cn2c(-n3ccc(N)n3)nc3ccccc32)cc1 : 0

Qu. What does the data say about its Hoechst 33342 nuclear staining score? Entry: COc1cccc(/C=C/C(=O)Cn2c(-n3ncnc3N)nc3ccccc32)c1
Ans. 0
